system: HCI09 (cells of a triple-negative luminal androgen receptor type breast cancer xenograft); assay: cell viability (% of vehicle); higher = less cytotoxic; details: 10 µM; 72 h;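 note: PDX cells carrying CMV promoter-driven luciferase, viability read as total photon flux per second by IVIS imaging following D-luciferin, vehicle control 0.1% DMSO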
Lab note - cut at 100 for cell viability: Yes if strictly below, No if not.

molecule | study system | class assignment
Cn1c(=O)c2c(ncn2CC2OCCO2)n(C)c1=O [Doxofylline] | HCI09 | Yes
CC(O)C1C(=O)N2C(C(=O)O)=C(SC3CNC(CNS(N)(=O)=O)C3)C(C)C12 (stereo not drawn) [Doripenem] | HCI09 | No
CC(=O)SC1CC2=CC(=O)CCC2(C)C2CCC3(C)C(CCC34CCC(=O)O4)C12 (stereo not drawn) [Spironolactone] | HCI09 | Yes
CCCN1CCCCC1C(=O)Nc1c(C)cccc1C.Cl.O (stereo not drawn) [Ropivacaine hydrochloride monohydrate] | HCI09 | No
Cn1c(=O)c2[nH]cnc2n(C)c1=O [Theophylline] | HCI09 | Yes
Nc1ccn(C2OC(CO)C(O)C2(F)F)c(=O)n1 (stereo not drawn) [Gemcitabine] | HCI09 | Yes
